B1: VPS39 (parent)
chain: LRLENNHCHIEESEHVLKKAHKYS

# Variants of: B1
# procedure summary: protein stability index of a GFP-peptide fusion (GPS, HEK-293T) (PSI 1-6); higher = more stable;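 also: lentivirally expressed fusions sorted by FACS into six bins by GFP to DsRed ratio, PSI derived from sequencing read proportions per bin multiplied by bin number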
# measurement parameters: c terminus: a fixed tail appended
Catalogue of protein stability index readings, one per entry.
# output: bare number, no unit

The examples below pair each entry with its known result.
INSERT INTO assay_data (mutation_name, data_value) VALUES
  ('A20D', 2.73),
  ('L1G', 4.6),
  ('R2Y', 2.79),
  ('S24H', 2.65),
  ('I10K', 3.33),
  ('K19H', 1.91),
  ('A20H', 2.3),
  ('C8T', 3.19),
  ('K18A', 2.42),
  ('C8H', 3.03);

Input: Any idea what its protein stability index is? The variant is `H15A`
Output: 2.87
